- assay_notes: in vivo
- recorded_conditions: rat, in vivo, po, 10 mg/kg
readout: half-life (h)
Write the value in h as a bare number.

-- ask Please look at this compound and report its half-life: CCC(=O)N[C@@H]1CCOc2c(-c3ccc4c(c3)CCC(=O)N4C)cncc21 [Compound A02-P2]
-- reply 3.47

----------
- assayed_system: human CYP11B1 enzyme (Homo sapiens)
- Construct: the ORF of human CYP11B1 or CYP11B2 were transfected into G402 cells
- Sequence (P15538 25-503): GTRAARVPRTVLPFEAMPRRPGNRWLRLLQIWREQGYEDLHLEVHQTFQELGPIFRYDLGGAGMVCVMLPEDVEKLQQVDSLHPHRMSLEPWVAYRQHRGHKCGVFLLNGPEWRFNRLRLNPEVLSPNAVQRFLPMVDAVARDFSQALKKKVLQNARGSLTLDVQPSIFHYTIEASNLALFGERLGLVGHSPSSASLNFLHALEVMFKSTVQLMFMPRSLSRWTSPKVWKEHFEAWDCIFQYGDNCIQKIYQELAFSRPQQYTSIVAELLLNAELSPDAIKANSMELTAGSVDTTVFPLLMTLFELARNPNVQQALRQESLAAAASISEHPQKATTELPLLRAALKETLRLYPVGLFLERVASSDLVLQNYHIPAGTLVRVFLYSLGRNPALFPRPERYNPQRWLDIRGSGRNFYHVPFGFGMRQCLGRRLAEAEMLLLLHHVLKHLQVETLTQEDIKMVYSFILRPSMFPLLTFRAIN
- assay_notes: Enzyme inhibition activity assay in G402 cells stably expressing human CYP11B1 (cortisol production from 11-DC, LC/MS)
- recorded_conditions: 1 µM 11-DC, 16 hours, cortisol detected
readout: log10 of IC50 (log10 of the value in nM)
Note: values are log10 of IC50 expressed in nM.

// known answers, use as guide
COC(=O)N[C@@H]1CCOc2c(-c3ccc4c(c3)CCC(=O)N4C)cncc21 :: 2.31
CCC(=O)N[C@@H]1CCOc2c(-c3ccc4c(c3)cc(C#N)n4C)cncc21 [Compound A10-P2] :: 2.50
[2H]C([2H])([2H])OC(=O)N[C@@H]1CCCc2c(-c3ccc4c(ccc(=O)n4C)c3)cncc21 :: 2.33
COC(=O)N[C@@H]1CCOc2c(-c3ccc4c(c3)COC(=O)N4C)cncc21 :: 2.76
CCC(=O)N[C@@H]1CCCc2c(-c3cc(Cl)c4c(ccc(=O)n4C)c3)cncc21 :: 3.61

-- ask Tell me log10 of IC50 reported for `[2H]C([2H])([2H])OC(=O)N[C@@H]1CCCc2c(-c3cc(Cl)c4c(ccc(=O)n4C)c3)cncc21`
-- reply 2.90

-- ask Read the entry `[2H]C([2H])([2H])OC(=O)N[C@@H]1CCOc2c(-c3ccc4c(c3)CCC(=O)N4C)cncc21` and write its reported log10 of IC50.
-- reply 2.58

-- ask Report log10 of IC50, nothing else, for this molecule: `CCC(=O)N[C@@H]1CCCc2c(-c3ccc4c(ccc(=O)n4C)c3)cncc21`
-- reply 3.40

-- ask // fetch log10 of IC50 given entry `COC(=O)N[C@@H]1CCCc2c(-c3cc(F)c4c(ccc(=O)n4C)c3)cncc21`
-- reply 2.86

----------
- assay_notes: Pharmacokinetic determination in mice after gavage administration (P.O.)
- Assay type: in vivo
- recorded_conditions: male, CD-1, mouse, po, 10 mg/kg, plasma
readout: Cmax (µM)
The reply should be a number in µM, with the unit left off.

[2H]C([2H])([2H])NC(=O)N[C@@H]1CCCc2c(-c3ccc4c(c3)COC(=O)N4C)cncc21 [Compound A16] :: 51.7
[2H]C([2H])([2H])OC(=O)N[C@@H]1CCOc2c(-c3cc(F)c4c(ccc(=O)n4C)c3)cncc21 [Compound A50] :: 9.07
CCC(=O)N[C@@H]1CCCc2c(-c3ccc4c(c3)CCC(=O)N4C)cncc21 [Control Compound, reference compound] :: 12.2

-- ask Consider the compound CCC(=O)N[C@@H]1CCCc2c(-c3ccc4c(c3)COC(=O)N4C)cncc21 [Compound C07] . State its measured Cmax.
-- reply 30.2

-- ask Supply Cmax value. Item: CCC(=O)N[C@@H]1CCCc2c(-c3cc(F)c4c(c3)COC(=O)N4C)cncc21 [Compound C44]
-- reply 53.1

-- ask Read the entry CCC(=O)N[C@@H]1CCCc2c(-c3cc(F)c4c(ccc(=O)n4C)c3)cncc21 [Compound C41] and write its reported Cmax.
-- reply 25
